meta.source: the supplement of paper PMC10567573

B1: FOXJ1 (parent)
chain: SAIYKWITDNFCYFRHADPTWQNS

Variants of: B1
PROTOCOL_DESCRIPTION: protein stability index of a GFP-peptide fusion (GPS, HEK-293T) (PSI 1-6); higher = more stable;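 also: lentivirally expressed fusions sorted by FACS into six bins by GFP to DsRed ratio, PSI derived from sequencing read proportions per bin multiplied by bin number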
COND: c terminus: a fixed tail appended
QUANTITY_KIND: protein stability index

[[record]]
mutation_notation = "I3C"
quantity_kind = "protein stability index"
numeric_value = 4.05

[[record]]
mutation_notation = "D9R"
quantity_kind = "protein stability index"
numeric_value = 3.41

[[record]]
mutation_notation = "I7N"
quantity_kind = "protein stability index"
numeric_value = 1.93

[[record]]
mutation_notation = "I7K"
quantity_kind = "protein stability index"
numeric_value = 1.74

[[record]]
mutation_notation = "N23D"
quantity_kind = "protein stability index"
numeric_value = 3.65

[[record]]
mutation_notation = "S1V"
quantity_kind = "protein stability index"
numeric_value = 2.43

[[record]]
mutation_notation = "W21K"
quantity_kind = "protein stability index"
numeric_value = 3.58

[[record]]
mutation_notation = "F14I"
quantity_kind = "protein stability index"
numeric_value = 4.22

[[record]]
mutation_notation = "T8D"
quantity_kind = "protein stability index"
numeric_value = 3.49

[[record]]
mutation_notation = "D9A"
quantity_kind = "protein stability index"
numeric_value = 2.74

[[record]]
mutation_notation = "F11N"
quantity_kind = "protein stability index"
numeric_value = 2.05

[[record]]
mutation_notation = "D18M"
quantity_kind = "protein stability index"
numeric_value = 3.77

[[record]]
mutation_notation = "T8P"
quantity_kind = "protein stability index"
numeric_value = 1.86

[[record]]
mutation_notation = "D9C"
quantity_kind = "protein stability index"
numeric_value = 4.21

[[record]]
mutation_notation = "F14E"
quantity_kind = "protein stability index"
numeric_value = 2.23

[[record]]
mutation_notation = "W6N"
quantity_kind = "protein stability index"
numeric_value = 2.71

[[record]]
mutation_notation = "D9Y"
quantity_kind = "protein stability index"
numeric_value = 2.56

[[record]]
mutation_notation = "A17H"
quantity_kind = "protein stability index"
numeric_value = 3.05

[[record]]
mutation_notation = "C12V"
quantity_kind = "protein stability index"
numeric_value = 2.69

[[record]]
mutation_notation = "F14S"
quantity_kind = "protein stability index"
numeric_value = 2.13

[[record]]
mutation_notation = "A2N"
quantity_kind = "protein stability index"
numeric_value = 2.25

[[record]]
mutation_notation = "A2W"
quantity_kind = "protein stability index"
numeric_value = 2.53

[[record]]
mutation_notation = "R15E"
quantity_kind = "protein stability index"
numeric_value = 4.29

[[record]]
mutation_notation = "D9L"
quantity_kind = "protein stability index"
numeric_value = 2.65

[[record]]
mutation_notation = "S24W"
quantity_kind = "protein stability index"
numeric_value = 2.37

[[record]]
mutation_notation = "W21P"
quantity_kind = "protein stability index"
numeric_value = 1.99

[[record]]
mutation_notation = "D18A"
quantity_kind = "protein stability index"
numeric_value = 3.1

[[record]]
mutation_notation = "I3F"
quantity_kind = "protein stability index"
numeric_value = 1.87

[[record]]
mutation_notation = "H16D"
quantity_kind = "protein stability index"
numeric_value = 2.33

[[record]]
mutation_notation = "K5M"
quantity_kind = "protein stability index"
numeric_value = 3

[[record]]
mutation_notation = "T8S"
quantity_kind = "protein stability index"
numeric_value = 4.33

[[record]]
mutation_notation = "R15N"
quantity_kind = "protein stability index"
numeric_value = 3.46

[[record]]
mutation_notation = "T20K"
quantity_kind = "protein stability index"
numeric_value = 2.23

[[record]]
mutation_notation = "S1A"
quantity_kind = "protein stability index"
numeric_value = 3.31

[[record]]
mutation_notation = "F14K"
quantity_kind = "protein stability index"
numeric_value = 2.58

[[record]]
mutation_notation = "N23K"
quantity_kind = "protein stability index"
numeric_value = 2.13

[[record]]
mutation_notation = "Y4I"
quantity_kind = "protein stability index"
numeric_value = 2.52

[[record]]
mutation_notation = "N23S"
quantity_kind = "protein stability index"
numeric_value = 2.62

[[record]]
mutation_notation = "K5N"
quantity_kind = "protein stability index"
numeric_value = 3.19

[[record]]
mutation_notation = "N10K"
quantity_kind = "protein stability index"
numeric_value = 2.34

[[record]]
mutation_notation = "D18V"
quantity_kind = "protein stability index"
numeric_value = 2.75

[[record]]
mutation_notation = "N23R"
quantity_kind = "protein stability index"
numeric_value = 3.24

[[record]]
mutation_notation = "K5A"
quantity_kind = "protein stability index"
numeric_value = 2.97

[[record]]
mutation_notation = "A17I"
quantity_kind = "protein stability index"
numeric_value = 2.91

[[record]]
mutation_notation = "T8V"
quantity_kind = "protein stability index"
numeric_value = 2.13

[[record]]
mutation_notation = "W21E"
quantity_kind = "protein stability index"
numeric_value = 3.54

[[record]]
mutation_notation = "T20A"
quantity_kind = "protein stability index"
numeric_value = 2.54

[[record]]
mutation_notation = "S24H"
quantity_kind = "protein stability index"
numeric_value = 2.34

[[record]]
mutation_notation = "F14Y"
quantity_kind = "protein stability index"
numeric_value = 2.97

[[record]]
mutation_notation = "P19G"
quantity_kind = "protein stability index"
numeric_value = 2.04

[[record]]
mutation_notation = "H16G"
quantity_kind = "protein stability index"
numeric_value = 2.72

[[record]]
mutation_notation = "P19K"
quantity_kind = "protein stability index"
numeric_value = 3.4

[[record]]
mutation_notation = "I3K"
quantity_kind = "protein stability index"
numeric_value = 1.84

[[record]]
mutation_notation = "S1M"
quantity_kind = "protein stability index"
numeric_value = 3.02

[[record]]
mutation_notation = "W6S"
quantity_kind = "protein stability index"
numeric_value = 1.71

[[record]]
mutation_notation = "C12H"
quantity_kind = "protein stability index"
numeric_value = 3.13

[[record]]
mutation_notation = "H16S"
quantity_kind = "protein stability index"
numeric_value = 3.5

[[record]]
mutation_notation = "S1K"
quantity_kind = "protein stability index"
numeric_value = 3.58

[[record]]
mutation_notation = "Y13W"
quantity_kind = "protein stability index"
numeric_value = 3.59

[[record]]
mutation_notation = "Y13H"
quantity_kind = "protein stability index"
numeric_value = 3.23

[[record]]
mutation_notation = "N10E"
quantity_kind = "protein stability index"
numeric_value = 2.62

[[record]]
mutation_notation = "T20P"
quantity_kind = "protein stability index"
numeric_value = 3.38

